Assay: Solubility of AMG 397 in common spray-drying solvents
Format: physicochemical
Settings: Dichloromethane (DCM)
ATTRIBUTE MEASURED: solubility

Entry under test: "CO[C@]1(CN2CCN3CCCC[C@@H]3C2)/C=C/C[C@H](C)[C@@H](C)S(=O)(=O)NC(=O)c2ccc3c(c2)N(C[C@@H]2CC[C@H]21)C[C@@]1(CCCc2cc(Cl)ccc21)CO3" . Its solubility was > 100 mg/mL
